# System: IGROV1 ovarian
# methodDescription: NCI-60 one-dose screen, 48 h (100 = growth as untreated, 0 = no growth, -100 = all killed)
# testSettings: 10 µM
About 83,000 compounds went through this panel and 20% of them were active in at least one assay; those are over-represented in the sample as a whole.
Recorded growth values for a group of molecules are listed next.
Report the value in % with no unit label.

Some entries whose results are on file:
CC(=O)Nc1ccc(-c2cn(-c3cccc(C(=O)Nc4cc(CN5CCOCC5)cc(C(F)(F)F)c4)c3)nn2)cn1 | -84.6
O=C(Nc1nc2ccc([N+](=O)[O-])cc2s1)Nc1ccccc1I | 19.7
COc1ccc(-c2nc(S(=O)(=O)c3ccc(C)cc3)c(S(C)(=O)=O)o2)cc1 | -24

Input Cc1ccc2nc(COc3ccc(C(=O)NNC(=S)NC(=O)c4ccccc4)cc3)[nH]c2c1 . Output growth: 53.4

growth measured on C=CCn1c(SCC(=O)Nc2ccc(C(=O)/C=C/c3ccccc3)cc2)nnc1-c1c[nH]c2ccccc12 = 42

Looking up COc1cc2c(c(OC)c1OC)C(=O)CC(c1cccc(NC(=O)c3cccc(N)c3)c1)O2 (centres undefined) , I see its growth listed as 86.7

Reported growth ( O=c1nc(-c2ccccc2)cc(-c2cc3ccccc3nc2Cl)[nH]1 ) = 56.8

Input COc1csc(/C=N/NC(=O)c2[nH]c3ccc(Br)cc3c2-c2ccccc2)c1 . Output growth: 22

Documented growth of O=C(CS(=O)(=O)c1oc(-c2ccc(Cl)cc2)nc1S(=O)(=O)c1ccccc1)N1CCCC1 : 74.4
